// data source = patent US7026443

measured-on: HLA-A*0201 (human)
Kind request: treat 0.001 as inclusive, so relative binding ratio (IC50 of standard peptide / IC50 of test peptide) at 0.001 or higher is Condition met, anything lower is Condition not met.

For orientation, consider the following solved cases.
// inclusive: relative binding ratio (IC50 of standard peptide / IC50 of test peptide) at least 0.001? input: GTLGIVCPI (modifications not checked) [HPV16 E7 peptide … (position 85, 9 amino acids)]
Condition met

Dear colleague, could you confirm whether VMGDTPEWI (modifications not checked) [HPV18 E1 339 peptide … (SEQ ID NO: 3614)] has relative binding ratio (IC50 of standard peptide / IC50 of test peptide) at or above 0.001?
Condition met

Is relative binding ratio (IC50 of standard peptide / IC50 of test peptide) for KLRSTAAAL (modifications not checked) [HPV16 E1 311 …] at or above 0.001?
Condition not met

Further cases:
Has FLKSNSQAKI (modifications not checked) [HPV16 E1 392 peptide …] a recorded relative binding ratio (IC50 of standard peptide / IC50 of test peptide) greater than or equal to 0.001?
Condition met

Please check the record FAFKDLFVV (modifications not checked) [HPV18 E6 peptide … (position 47)] and state if its relative binding ratio (IC50 of standard peptide / IC50 of test peptide) is at or above 0.001.
Condition met

Hi, just wondering whether TLEQQYNKPL (modifications not checked) [HPV16 E6 peptide … (position 94, 10 amino acids)] shows relative binding ratio (IC50 of standard peptide / IC50 of test peptide) of 0.001 or higher.
Condition not met

hey, is relative binding ratio (IC50 of standard peptide / IC50 of test peptide) for this one >= 0.001? FVNSKSHFWL (modifications not checked) [HPV16 E1 501 peptide …]
Condition met
